# System: SC3.2
# protocol_notes: Cytotoxicity in NTR-transfected (NR+) human ovarian cell line SC3.2
# Format: cell-based
# experimental_context: SKOV3 / SC3.2, 18 h exposure
reported_property: Ratio = IC50(NR−)/IC50(NR+) Human Ovarian
I'd appreciate a reply containing only the number, no unit.

Worked set:
[[record]]
molecule = "CS(=O)(=O)OCCN(CCCl)c1ccc([N+](=O)[O-])c(C(=O)NCC(O)CO)c1[N+](=O)[O-] (stereo not drawn) [IIc7]"
system_under_test = "SC3.2"
assay_result = 267

[[record]]
molecule = "CS(=O)(=O)OCCN(CCBr)c1ccc([N+](=O)[O-])c(C(=O)NCC(O)CO)c1[N+](=O)[O-] (stereo not drawn) [IIc8]"
system_under_test = "SC3.2"
assay_result = 509


Please turn your attention to the following entry.
// query Given CS(=O)(=O)OCCN(CCI)c1cc(C(N)=O)c([N+](=O)[O-])cc1[N+](=O)[O-] [IIa4] , state its recorded Ratio = IC50(NR−)/IC50(NR+) Human Ovarian.
// result 311

* * *

# System: WC14.10
# protocol_notes: Cytotoxicity in NTR-transfected (NR+) human colon cell line WC14.10
# Format: cell-based
# experimental_context: WIDR / WC14.10, 4 h exposure
Marks after values point to notes of the source that are not given here.
reported_property: Ratio = IC50(NR−)/IC50(NR+) Human colon

// worked examples, Ratio = IC50(NR−)/IC50(NR+) Human colon included
[[record]]
molecule = "CC(O)CNC(=O)c1cc([N+](=O)[O-])cc([N+](=O)[O-])c1N(CCBr)CCOS(C)(=O)=O (stereo not shown) [IIb5]"
assay_result = "12^f"

[[record]]
molecule = "CS(=O)(=O)OCCN(CCBr)c1c([N+](=O)[O-])ccc(C(=O)NCCO)c1[N+](=O)[O-] [IIc3]"
assay_result = "83^f"

[[record]]
molecule = "CS(=O)(=O)OCCN(CCI)c1c(C(=O)NCCO)cc([N+](=O)[O-])cc1[N+](=O)[O-] [IIb4]"
assay_result = "31^f"


The record that follows has no Ratio = IC50(NR−)/IC50(NR+) Human colon shown yet.
// query Provide the documented Ratio = IC50(NR−)/IC50(NR+) Human colon with WC14.10 as the system for CS(=O)(=O)OCCN(CCBr)c1c([N+](=O)[O-])ccc(C(=O)NCCCCO)c1[N+](=O)[O-] [IIc6]
// result 16^f

* * *

# System: A549 transfected with human cytochrome P450 reductase (P450R)
# protocol_notes: Cytotoxicity in oxic and anoxic A549 cells transfected with human cytochrome P450 reductase
# Type: cell-based
# experimental_context: 4 h exposure
Recorded measurements of P450R ratio = IC50(aerobic)/IC50(anoxic), one per entry
Just the number, please, no unit after it.

[[record]]
compound = "CS(=O)(=O)OCCN(CCBr)c1cc(C(=O)NCCCO)c([N+](=O)[O-])cc1[N+](=O)[O-] [IIa6]"
system_under_test = "A549 transfected with human cytochrome P450 reductase (P450R)"
assay_result = 18

[[record]]
compound = "CS(=O)(=O)OCCN(CCBr)c1cc(C(=O)NCCO)c([N+](=O)[O-])cc1[N+](=O)[O-] [IIa5]"
system_under_test = "A549 transfected with human cytochrome P450 reductase (P450R)"
assay_result = 9.9

[[record]]
compound = "CS(=O)(=O)OCCN(CCBr)c1c([N+](=O)[O-])ccc(C(=O)NCCCO)c1[N+](=O)[O-] [IIc5]"
system_under_test = "A549 transfected with human cytochrome P450 reductase (P450R)"
assay_result = 134

[[record]]
compound = "CC(O)CNC(=O)c1cc([N+](=O)[O-])cc([N+](=O)[O-])c1N(CCBr)CCOS(C)(=O)=O (centres unmarked) [IIb5]"
system_under_test = "A549 transfected with human cytochrome P450 reductase (P450R)"
assay_result = 150

[[record]]
compound = "CS(=O)(=O)OCCN(CCCl)c1ccc([N+](=O)[O-])c(C(=O)NCCCO)c1[N+](=O)[O-] [IIc4]"
system_under_test = "A549 transfected with human cytochrome P450 reductase (P450R)"
assay_result = 108


// query Need P450R ratio = IC50(aerobic)/IC50(anoxic) of CS(=O)(=O)OCCN(CCBr)c1c([N+](=O)[O-])ccc(C(=O)NCCO)c1[N+](=O)[O-] [IIc3] , thanks.
// result 146

// query Find the recorded P450R ratio = IC50(aerobic)/IC50(anoxic) belonging to CS(=O)(=O)OCCN(CCBr)c1c(C(=O)NCCO)cc([N+](=O)[O-])cc1[N+](=O)[O-] [IIb3] and report it.
// result 133

// query Query (compound): CS(=O)(=O)OCCN(CCI)c1c(C(=O)NCCO)cc([N+](=O)[O-])cc1[N+](=O)[O-] [IIb4] ; field requested: P450R ratio = IC50(aerobic)/IC50(anoxic)
// result 95

* * *

# Tested on: A549 transfected with human cytochrome P450 reductase (P450R)
# protocol_notes: Cytotoxicity in oxic and anoxic A549 cells transfected with human cytochrome P450 reductase
# Format: cell-based
# experimental_context: anoxic, 4 h exposure
reported_property: IC50 (µM)
Give the quantity in µM, number only.

Check out these entries, answers already filled in.
[[record]]
compound = "CC(O)CNC(=O)c1cc([N+](=O)[O-])cc([N+](=O)[O-])c1N(CCBr)CCOS(C)(=O)=O (centres unmarked) [IIb5]"
assay_result = 0.34

[[record]]
compound = "CS(=O)(=O)OCCN(CCI)c1c(C(=O)NCCO)cc([N+](=O)[O-])cc1[N+](=O)[O-] [IIb4]"
assay_result = 0.45

[[record]]
compound = "CS(=O)(=O)OCCN(CCCl)c1ccc([N+](=O)[O-])c(C(=O)NCCCO)c1[N+](=O)[O-] [IIc4]"
assay_result = 7.3

[[record]]
compound = "CS(=O)(=O)OCCN(CCBr)c1c(C(=O)NCCO)cc([N+](=O)[O-])cc1[N+](=O)[O-] [IIb3]"
assay_result = 0.28

[[record]]
compound = "CS(=O)(=O)OCCN(CCBr)c1c([N+](=O)[O-])ccc(C(=O)NCCO)c1[N+](=O)[O-] [IIc3]"
assay_result = 2.9

[[record]]
compound = "CS(=O)(=O)OCCN(CCBr)c1c([N+](=O)[O-])ccc(C(=O)NCCCO)c1[N+](=O)[O-] [IIc5]"
assay_result = 4.5

[[record]]
compound = "CS(=O)(=O)OCCN(CCBr)c1cc(C(=O)NCCCO)c([N+](=O)[O-])cc1[N+](=O)[O-] [IIa6]"
assay_result = 31


Please look at the following compound next.
// query Name the recorded IC50 for CS(=O)(=O)OCCN(CCBr)c1cc(C(=O)NCCO)c([N+](=O)[O-])cc1[N+](=O)[O-] [IIa5] .
// result 73

* * *

# key: entry, value: Ratio = IC50(NR−)/IC50(NR+) Human Ovarian
# System: SC3.2
# protocol_notes: Cytotoxicity in NTR-transfected (NR+) human ovarian cell line SC3.2
# Assay type: cell-based
# experimental_context: SKOV3 / SC3.2, 18 h exposure

[[record]]
molecule = "CS(=O)(=O)OCCN(CCBr)c1cc(C(N)=O)c([N+](=O)[O-])cc1[N+](=O)[O-]"
assay_result = 715

[[record]]
molecule = "CS(=O)(=O)OCCN(CCBr)c1c([N+](=O)[O-])ccc(C(N)=O)c1[N+](=O)[O-]"
assay_result = 724

[[record]]
molecule = "CS(=O)(=O)OCCN(CCCl)c1ccc([N+](=O)[O-])c(C(=O)NCCCN2CCOCC2)c1[N+](=O)[O-]"
assay_result = 14

[[record]]
molecule = "CS(=O)(=O)OCCN(CCCl)c1ccc([N+](=O)[O-])c(C(=O)NCCCO)c1[N+](=O)[O-]"
assay_result = 549

[[record]]
molecule = "CS(=O)(=O)OCCN(CCBr)c1ccc([N+](=O)[O-])c(C(=O)NCCCN2CCOCC2)c1[N+](=O)[O-]"
assay_result = 14

[[record]]
molecule = "CS(=O)(=O)OCCN(CCBr)c1c(C(=O)NCCCN2CCOCC2)cc([N+](=O)[O-])cc1[N+](=O)[O-]"
assay_result = 102

[[record]]
molecule = "COC(=O)CCNC(=O)c1cc([N+](=O)[O-])cc([N+](=O)[O-])c1N(CCCl)CCOS(C)(=O)=O"
assay_result = 51

[[record]]
molecule = "CS(=O)(=O)OCCN(CCBr)c1c(C(N)=O)cc([N+](=O)[O-])cc1[N+](=O)[O-]"
assay_result = 762


// query # query: Ratio = IC50(NR−)/IC50(NR+) Human Ovarian of entry CS(=O)(=O)OCCN(CCBr)c1c([N+](=O)[O-])ccc(C(=O)NCCCO)c1[N+](=O)[O-]
// result 497

// query Given CS(=O)(=O)OCCN(CCCl)c1ccc([N+](=O)[O-])c(C(N)=O)c1[N+](=O)[O-] , state its recorded Ratio = IC50(NR−)/IC50(NR+) Human Ovarian.
// result 390

// query Quick one: Ratio = IC50(NR−)/IC50(NR+) Human Ovarian for COC(=O)CCNC(=O)c1cc([N+](=O)[O-])cc([N+](=O)[O-])c1N(CCBr)CCOS(C)(=O)=O ?
// result 25

// query // returns reported Ratio = IC50(NR−)/IC50(NR+) Human Ovarian for input CS(=O)(=O)OCCN(CCBr)c1c(C(=O)NCC(O)CO)cc([N+](=O)[O-])cc1[N+](=O)[O-] (stereo not shown)
// result 140
